test: Cytotoxicity against human HO-8910 cells assessed as reduction in cell viability by sulforhodamine B assay; format: functional, cell-based
Entries and their IC50 values follow.
result_type: IC50 (nM)

compound: C=C(C)CCC[C@]1(C)OC(=O)[C@]23CC[C@@H]4C(=CCC5C(C)(C)[C@@H](O[C@@H]6OC[C@@H](OS(=O)(=O)[O-])[C@H](O)[C@H]6O[C@@H]6O[C@H](C)[C@@H](O[C@@H]7OC[C@@H](O)[C@H](O[C@@H]8O[C@H](CO)[C@@H](O)[C@H](OC)[C@H]8O)[C@H]7O)[C@H](O)[C@H]6O)CC[C@@]54C)[C@]2(C)C[C@H](OC(C)=O)[C@@H]31.[Na+] (some centres undefined)
numeric_result: 1940

compound: CO[C@@H]1[C@@H](O)[C@H](O[C@@H]2[C@@H](O)[C@H](O[C@H]3[C@H](O)[C@@H](O)[C@H](O[C@H]4[C@H](O[C@H]5CC[C@@]6(C)C(CC=C7[C@H]6CC[C@]68C(=O)O[C@@](C)(CCC=C(C)C)[C@H]6[C@@H](OC(C)=O)C[C@@]78C)C5(C)C)OC[C@@H](OS(=O)(=O)[O-])[C@@H]4O)O[C@@H]3C)OC[C@H]2O)O[C@H](CO)[C@H]1O.[Na+] (some centres undefined)
numeric_result: 2320

compound: C=C(C)CCC[C@]1(C)OC(=O)[C@]23CC[C@@H]4C(=CCC5C(C)(C)[C@@H](O[C@@H]6OC[C@@H](OS(=O)(=O)[O-])[C@H](O)[C@H]6O[C@@H]6O[C@H](C)[C@@H](O[C@@H]7OC[C@@H](O)[C@H](O[C@@H]8O[C@H](CO)[C@@H](O)[C@H](OC)[C@H]8O)[C@H]7O)[C@H](O)[C@H]6O)CC[C@@]54C)[C@]2(C)CC(=O)[C@@H]31.[Na+] (some centres undefined)
numeric_result: 1900

compound: C=C(C)CCC[C@]1(C)OC(=O)[C@]23CC[C@@H]4C(=CCC5C(C)(C)[C@@H](O[C@@H]6OC[C@@H](OS(=O)(=O)O)[C@H](O)[C@H]6O[C@@H]6O[C@H](C)[C@@H](O[C@@H]7OC[C@@H](O)[C@H](O[C@@H]8O[C@H](CO)[C@@H](O)[C@H](OC)[C@H]8O)[C@H]7OS(=O)(=O)O)[C@H](O)[C@H]6O)CC[C@@]54C)[C@]2(C)C[C@H](OC(C)=O)[C@@H]31.[Na+].[Na+].[Na+] (some centres undefined)
numeric_result: 1900

----------
test system: Cryptococcus neoformans; assay: Antifungal activity against Cryptococcus neoformans ATCC 32609 by microplate reader assay; format: functional; settings: ATTCC32609
Entries and their MIC80 values follow.

molecule: CO[C@@H]1[C@@H](O)[C@H](O[C@@H]2[C@@H](O)[C@H](O[C@H]3[C@H](O)[C@@H](O)[C@H](O[C@H]4[C@H](O[C@H]5CC[C@@]6(C)C(CC=C7[C@H]6CC[C@]68C(=O)O[C@@](C)(CCC=C(C)C)[C@H]6[C@@H](OC(C)=O)C[C@@]78C)C5(C)C)OC[C@@H](OS(=O)(=O)[O-])[C@@H]4O)O[C@@H]3C)OC[C@H]2O)O[C@H](CO)[C@H]1O.[Na+] (stereo not given in full)
modifier: =
MIC80 (µg/mL): 25
//
molecule: C=C(C)CCC[C@]1(C)OC(=O)[C@]23CC[C@@H]4C(=CCC5C(C)(C)[C@@H](O[C@@H]6OC[C@@H](OS(=O)(=O)[O-])[C@H](O)[C@H]6O[C@@H]6O[C@H](C)[C@@H](O[C@@H]7OC[C@@H](O)[C@H](O[C@@H]8O[C@H](CO)[C@@H](O)[C@H](OC)[C@H]8O)[C@H]7O)[C@H](O)[C@H]6O)CC[C@@]54C)[C@]2(C)CC(=O)[C@@H]31.[Na+] (stereo not given in full)
modifier: =
MIC80 (µg/mL): 25
//
molecule: OC(Cn1cncn1)(Cn1cncn1)c1ccc(F)cc1F
modifier: =
MIC80 (µg/mL): 2
//
molecule: C=C(C)CCC[C@]1(C)OC(=O)[C@]23CC[C@@H]4C(=CCC5C(C)(C)[C@@H](O[C@@H]6OC[C@@H](OS(=O)(=O)[O-])[C@H](O)[C@H]6O[C@@H]6O[C@H](C)[C@@H](O[C@@H]7OC[C@@H](O)[C@H](O[C@@H]8O[C@H](CO)[C@@H](O)[C@H](OC)[C@H]8O)[C@H]7O)[C@H](O)[C@H]6O)CC[C@@]54C)[C@]2(C)C[C@H](OC(C)=O)[C@@H]31.[Na+] (stereo not given in full)
modifier: =
MIC80 (µg/mL): 16
//
molecule: CN(C/C=C/C#CC(C)(C)C)Cc1cccc2ccccc12
modifier: <
MIC80 (µg/mL): 0.125
